protocol.notes: Intrinsic clearance in human microsomes
Format: ADME, Microsome

{"columns": ["chemical.smiles", "units.symbol", "microsomal CLint"],
 "data": [
  ["CC(C)c1nc(N2CCN(c3ncc(OCc4ccncc4C#N)cn3)[C@H](C)C2)no1", "µL/min/mg", 48],
  ["CC(C)c1noc(N2CCN(c3ncc(OCc4ccncc4C#N)cn3)[C@H](C)C2)n1", "µL/min/mg", 55],
  ["C[C@@H]1CN(c2noc(C(F)(F)F)n2)CCN1c1ncc(OCc2ccncc2C#N)cn1", "µL/min/mg", 28],
  ["C[C@@H]1CN(c2nc(C(F)(F)F)no2)CCN1c1ncc(OCc2ccncc2C#N)cn1", "µL/min/mg", 40],
  ["C[C@@H]1CN(c2nnc(C(F)(F)F)o2)CCN1c1ncc(OCc2ccncc2C#N)cn1", "µL/min/mg", 34],
  ["CC(C)c1nnc(N2CCN(c3ncc(OCc4ccncc4C#N)cn3)[C@H](C)C2)o1", "µL/min/mg", 47]
]}

---

Reported hepatocyte CLint is given for each of the following compounds.
protocol.notes: Intrinsic clearance in rat hepatocytes measured per 10^6 cells
Type: ADME, cell-based, Hepatocyte
settings: read-out: CLH
observed.property: hepatocyte CLint (µL/min/1e6 cells)

{"columns": ["chemical.smiles", "observed.property", "numeric.value"],
 "data": [
  ["CC(C)c1nnc(N2CCN(c3ncc(OCc4ccncc4C#N)cn3)[C@H](C)C2)o1", "hepatocyte CLint", 63],
  ["C[C@@H]1CN(c2nc(C(F)(F)F)no2)CCN1c1ncc(OCc2ccncc2C#N)cn1", "hepatocyte CLint", 52],
  ["C[C@@H]1CN(c2noc(C(F)(F)F)n2)CCN1c1ncc(OCc2ccncc2C#N)cn1", "hepatocyte CLint", 42],
  ["C[C@@H]1CN(c2nnc(C(F)(F)F)o2)CCN1c1ncc(OCc2ccncc2C#N)cn1", "hepatocyte CLint", 53],
  ["CC(C)c1nc(N2CCN(c3ncc(OCc4ccncc4C#N)cn3)[C@H](C)C2)no1", "hepatocyte CLint", 70],
  ["CC(C)c1noc(N2CCN(c3ncc(OCc4ccncc4C#N)cn3)[C@H](C)C2)n1", "hepatocyte CLint", 72]
]}

---

protocol.notes: Fraction unbound in rat plasma
Format: ADME, cell-free

{"columns": ["chemical.smiles", "fraction unbound"],
 "data": [
  ["CC(C)c1nnc(N2CCN(c3ncc(OCc4ccncc4C#N)cn3)[C@H](C)C2)o1", 0.087]
]}

---

protocol.notes: Half life at 10 uM at pH 4 at 25 degC
Format: physicochemical
settings: buffer

{"columns": ["chemical.smiles", "units.symbol", "half-life at 10 µM"],
 "data": [
  ["C[C@@H]1CN(c2noc(C(F)(F)F)n2)CCN1c1ncc(OCc2ccncc2C#N)cn1", "h", 137]
]}

---

target.entity: UniProtKB Q12809
Sequence (Q12809 whole entry): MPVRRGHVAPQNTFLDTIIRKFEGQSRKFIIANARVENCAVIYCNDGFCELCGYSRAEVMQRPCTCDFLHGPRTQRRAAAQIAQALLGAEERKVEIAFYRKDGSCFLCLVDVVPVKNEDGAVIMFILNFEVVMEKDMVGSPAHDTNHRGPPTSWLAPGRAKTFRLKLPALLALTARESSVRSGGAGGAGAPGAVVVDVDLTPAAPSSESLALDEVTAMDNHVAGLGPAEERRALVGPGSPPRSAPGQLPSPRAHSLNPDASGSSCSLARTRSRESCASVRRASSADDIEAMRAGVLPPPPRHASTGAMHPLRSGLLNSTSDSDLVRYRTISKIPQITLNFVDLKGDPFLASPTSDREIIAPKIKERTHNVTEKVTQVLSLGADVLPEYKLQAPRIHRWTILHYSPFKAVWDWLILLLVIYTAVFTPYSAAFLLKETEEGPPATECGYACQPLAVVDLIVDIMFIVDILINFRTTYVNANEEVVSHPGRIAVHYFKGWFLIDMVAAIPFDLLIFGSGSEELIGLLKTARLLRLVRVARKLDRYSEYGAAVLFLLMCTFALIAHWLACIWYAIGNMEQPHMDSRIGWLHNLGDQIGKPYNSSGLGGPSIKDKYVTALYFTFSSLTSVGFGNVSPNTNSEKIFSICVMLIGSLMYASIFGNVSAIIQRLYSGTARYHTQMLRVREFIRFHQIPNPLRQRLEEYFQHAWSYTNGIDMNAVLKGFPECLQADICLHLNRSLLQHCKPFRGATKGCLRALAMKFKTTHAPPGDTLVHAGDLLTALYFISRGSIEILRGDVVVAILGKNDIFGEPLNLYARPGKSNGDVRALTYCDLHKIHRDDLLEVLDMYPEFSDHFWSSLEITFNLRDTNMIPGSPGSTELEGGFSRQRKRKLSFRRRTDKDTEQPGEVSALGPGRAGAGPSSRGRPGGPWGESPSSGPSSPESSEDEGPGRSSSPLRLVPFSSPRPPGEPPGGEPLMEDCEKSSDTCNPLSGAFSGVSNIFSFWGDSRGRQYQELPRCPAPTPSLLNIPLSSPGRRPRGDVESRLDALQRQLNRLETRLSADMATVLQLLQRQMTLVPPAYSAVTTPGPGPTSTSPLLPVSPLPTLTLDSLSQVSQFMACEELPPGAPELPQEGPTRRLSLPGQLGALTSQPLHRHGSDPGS
pIC50: −log10 of the molar value.

{"columns": ["chemical.smiles", "pIC50"],
 "data": [
  ["CC(C)c1nnc(N2CCN(c3ncc(OCc4ccncc4C#N)cn3)[C@H](C)C2)o1", "< 4.55"]
]}

---

protocol.notes: Permeability from basolateral to apical side in human Caco2 cells
Assay type: ADME, cell-based
settings: Caco-2, read-out: permeability
Reported Papp B→A values follow for various molecules

{"columns": ["chemical.smiles", "Papp B→A (×10⁻⁶ cm/s)"],
 "data": [
  ["CC(C)c1nnc(N2CCN(c3ncc(OCc4ccncc4C#N)cn3)[C@H](C)C2)o1", 13],
  ["CC(C)c1nc(N2CCN(c3ncc(OCc4ccncc4C#N)cn3)[C@H](C)C2)no1", 6],
  ["C[C@@H]1CN(c2nc(C(F)(F)F)no2)CCN1c1ncc(OCc2ccncc2C#N)cn1", 6],
  ["C[C@@H]1CN(c2nnc(C(F)(F)F)o2)CCN1c1ncc(OCc2ccncc2C#N)cn1", 21],
  ["C[C@@H]1CN(c2noc(C(F)(F)F)n2)CCN1c1ncc(OCc2ccncc2C#N)cn1", 6]
]}

---

protocol.notes: Hexadecane-phosphate buffer distribution coefficient, log P of the compound at pH 7.4
Format: physicochemical

{"columns": ["chemical.smiles", "logP"],
 "data": [
  ["C[C@@H]1CN(c2nnc(C(F)(F)F)o2)CCN1c1ncc(OCc2ccncc2C#N)cn1", 0.5],
  ["CC(C)c1nnc(N2CCN(c3ncc(OCc4ccncc4C#N)cn3)[C@H](C)C2)o1", -0.5],
  ["C[C@@H]1CN(c2nc(C(F)(F)F)no2)CCN1c1ncc(OCc2ccncc2C#N)cn1", 1.4],
  ["CC(C)c1nc(N2CCN(c3ncc(OCc4ccncc4C#N)cn3)[C@H](C)C2)no1", 1.3],
  ["C[C@@H]1CN(c2noc(C(F)F)n2)CCN1c1ncc(OCc2ccncc2C#N)cn1", 1.4],
  ["C[C@@H]1CN(c2noc(C(F)(F)F)n2)CCN1c1ncc(OCc2ccncc2C#N)cn1", 2.9]
]}

---

protocol.notes: Fraction unbound in human plasma
Format: ADME, cell-free
observed.property: fraction unbound

{"columns": ["chemical.smiles", "observed.property", "numeric.value"],
 "data": [
  ["CC(C)c1nnc(N2CCN(c3ncc(OCc4ccncc4C#N)cn3)[C@H](C)C2)o1", "fraction unbound", 0.071]
]}

---

protocol.notes: Half life at 10 uM at pH 8 at 65 degC
Type: physicochemical
settings: buffer

{"columns": ["chemical.smiles", "units.symbol", "half-life at 10 µM"],
 "data": [
  ["C[C@@H]1CN(c2noc(C(F)(F)F)n2)CCN1c1ncc(OCc2ccncc2C#N)cn1", "h", 2.88]
]}

---

protocol.notes: Permeability from apical to basolateral side in human Caco2 cells
Assay type: ADME, cell-based
settings: Caco-2, read-out: permeability
# Papp A→B per entry

{"columns": ["chemical.smiles", "units.symbol", "Papp A→B"],
 "data": [
  ["CC(C)c1nc(N2CCN(c3ncc(OCc4ccncc4C#N)cn3)[C@H](C)C2)no1", "nm/s", 150],
  ["C[C@@H]1CN(c2nc(C(F)(F)F)no2)CCN1c1ncc(OCc2ccncc2C#N)cn1", "nm/s", 130],
  ["C[C@@H]1CN(c2nnc(C(F)(F)F)o2)CCN1c1ncc(OCc2ccncc2C#N)cn1", "nm/s", 180],
  ["C[C@@H]1CN(c2noc(C(F)(F)F)n2)CCN1c1ncc(OCc2ccncc2C#N)cn1", "nm/s", 230],
  ["CC(C)c1nnc(N2CCN(c3ncc(OCc4ccncc4C#N)cn3)[C@H](C)C2)o1", "nm/s", 160]
]}

---

protocol.notes: Half life at 10 uM at pH 4 at 65 degC
Format: physicochemical
settings: buffer

{"columns": ["chemical.smiles", "units.symbol", "half-life at 10 µM"],
 "data": [
  ["C[C@@H]1CN(c2noc(C(F)(F)F)n2)CCN1c1ncc(OCc2ccncc2C#N)cn1", "h", 6.96]
]}

Source listed as ChEMBL document CHEMBL3217702.
